meta.source: ChEMBL document CHEMBL3886544

measurementTarget: Vascular endothelial growth factor receptor 2 (Homo sapiens, UniProt P35968)
Sequence (P35968 whole entry, the tested form may be a part): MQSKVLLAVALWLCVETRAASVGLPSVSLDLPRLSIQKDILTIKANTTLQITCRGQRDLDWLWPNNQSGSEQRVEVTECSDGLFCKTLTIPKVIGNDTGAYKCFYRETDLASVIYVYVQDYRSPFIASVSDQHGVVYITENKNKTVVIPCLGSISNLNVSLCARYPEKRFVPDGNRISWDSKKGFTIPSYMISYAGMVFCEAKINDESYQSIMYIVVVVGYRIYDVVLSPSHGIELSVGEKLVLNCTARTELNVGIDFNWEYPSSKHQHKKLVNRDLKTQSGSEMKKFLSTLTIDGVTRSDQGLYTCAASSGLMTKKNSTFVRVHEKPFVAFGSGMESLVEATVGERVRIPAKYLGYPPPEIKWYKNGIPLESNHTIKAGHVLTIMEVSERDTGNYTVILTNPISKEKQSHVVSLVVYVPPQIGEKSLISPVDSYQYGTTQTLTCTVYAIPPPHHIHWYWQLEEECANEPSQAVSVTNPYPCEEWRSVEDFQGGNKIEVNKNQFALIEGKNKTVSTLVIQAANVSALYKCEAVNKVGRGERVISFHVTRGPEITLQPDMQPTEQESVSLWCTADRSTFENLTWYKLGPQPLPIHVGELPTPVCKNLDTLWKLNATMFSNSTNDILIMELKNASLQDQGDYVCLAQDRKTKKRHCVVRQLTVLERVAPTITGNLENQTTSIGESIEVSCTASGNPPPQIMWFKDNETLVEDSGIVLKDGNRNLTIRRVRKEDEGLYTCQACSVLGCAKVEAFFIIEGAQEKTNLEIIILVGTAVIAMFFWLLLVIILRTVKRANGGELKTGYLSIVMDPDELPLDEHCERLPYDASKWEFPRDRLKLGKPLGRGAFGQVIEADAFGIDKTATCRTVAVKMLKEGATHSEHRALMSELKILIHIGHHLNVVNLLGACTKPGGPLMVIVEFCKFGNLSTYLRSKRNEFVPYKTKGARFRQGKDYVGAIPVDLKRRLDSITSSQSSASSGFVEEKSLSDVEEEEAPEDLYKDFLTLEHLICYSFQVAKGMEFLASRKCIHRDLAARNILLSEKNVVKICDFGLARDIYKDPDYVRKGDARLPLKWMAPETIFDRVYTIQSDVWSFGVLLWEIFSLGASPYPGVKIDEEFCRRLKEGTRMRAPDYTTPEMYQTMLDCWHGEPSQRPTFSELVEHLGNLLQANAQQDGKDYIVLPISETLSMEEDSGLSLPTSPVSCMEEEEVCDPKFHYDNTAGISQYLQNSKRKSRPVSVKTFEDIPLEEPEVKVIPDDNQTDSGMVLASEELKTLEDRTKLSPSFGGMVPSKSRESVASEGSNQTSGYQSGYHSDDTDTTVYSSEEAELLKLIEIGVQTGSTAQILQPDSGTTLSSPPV
test: VEGFR2 Kinase Assay: Biochemical KDR kinase assays were performed in 96 well microtiter plates that were coated overnight with 75 ug/well of poly-Glu-Tyr (4:1) in 10 mM Phosphate Buffered Saline (PBS), pH 7.4. The coated plates were washed with 2 mls per well PBS+0.05% Tween-20 (PBS-T), blocked by incubation with PBS containing 1% BSA, then washed with 2 mls per well PBS-T prior to starting the reaction. Reactions were carried out in 100 uL reaction volumes containing 2.7 uM ATP in kinase buffer (50 mM Hepes buffer pH 7.4, 20 mM MgCl2, 0.1 mM MnCl2 and 0.2 mM Na3VO4). Test compounds were reconstituted in 100% DMSO and added to the reaction to give a final DMSO concentration of 5%. Reactions were initiated by the addition 20 ul per well of kinase buffer containing 200-300 ng purified cytoplasmic domain KDR protein (BPS Bioscience, San Diego, Calif.). Following a 15 minute incubation at 30° C., the reactions were washed 2 mls per well PBS-T. 100 ul of a monoclonal anti-phosphotyrosine antibody-peroxidase conjugate diluted 1:10,000 in PBS-T was added to the wells for 30 minutes. Following a 2 mls per well wash with PBS-Tween-20, 100 ul of 0-Phenylenediamine Dihydrochloride in phosphate-citrate buffer, containing urea hydrogen peroxide, was added to the wells for 7-10 minutes as a colorimetric substrate for the peroxidase. The reaction was terminated by the addition of 100 ul of 2.5N H2SO4 to each well and read using a microplate ELISA reader set at 492 nm.
pIC50: −log10 of the molar value.
Here the recorded pIC50 is given for each entry.

{"compound": "Cc1ccoc1C(=O)Nc1cccc(C#Cc2cncc(C(=O)N=[S@@](C)(=O)CCCO)c2)c1", "measurementTarget": "Vascular endothelial growth factor receptor 2 (Homo sapiens, UniProt P35968)", "pIC50": 8.52}
{"compound": "Cc1ccoc1C(=O)Nc1cccc(C#Cc2cc(C(=O)N=S(C)(=O)CC(=O)N3CC[C@H](O)C3)cnc2N)c1 (some centres undefined)", "measurementTarget": "Vascular endothelial growth factor receptor 2 (Homo sapiens, UniProt P35968)", "pIC50": 8.52}
{"compound": "Cc1ccoc1C(=O)Nc1cccc(C#Cc2cncc(C(=O)N=S(C)(=O)CCCN3CCN(CCOCCO)CC3)c2)c1 (centres undefined)", "measurementTarget": "Vascular endothelial growth factor receptor 2 (Homo sapiens, UniProt P35968)", "pIC50": 8.05}
{"compound": "Cc1ccoc1C(=O)Nc1cccc(C#Cc2cncc(C(=O)N=S(C)(=O)CCCO)c2)c1 (centres undefined)", "measurementTarget": "Vascular endothelial growth factor receptor 2 (Homo sapiens, UniProt P35968)", "pIC50": 7.85}
